Ref: patent US20250213705A1

Entries annotated with measured pKi
- System Under Test: Recombinant Human PSMA/FOLH1 Protein (Homo sapiens (Human))
- Sequence (Q04609 whole entry): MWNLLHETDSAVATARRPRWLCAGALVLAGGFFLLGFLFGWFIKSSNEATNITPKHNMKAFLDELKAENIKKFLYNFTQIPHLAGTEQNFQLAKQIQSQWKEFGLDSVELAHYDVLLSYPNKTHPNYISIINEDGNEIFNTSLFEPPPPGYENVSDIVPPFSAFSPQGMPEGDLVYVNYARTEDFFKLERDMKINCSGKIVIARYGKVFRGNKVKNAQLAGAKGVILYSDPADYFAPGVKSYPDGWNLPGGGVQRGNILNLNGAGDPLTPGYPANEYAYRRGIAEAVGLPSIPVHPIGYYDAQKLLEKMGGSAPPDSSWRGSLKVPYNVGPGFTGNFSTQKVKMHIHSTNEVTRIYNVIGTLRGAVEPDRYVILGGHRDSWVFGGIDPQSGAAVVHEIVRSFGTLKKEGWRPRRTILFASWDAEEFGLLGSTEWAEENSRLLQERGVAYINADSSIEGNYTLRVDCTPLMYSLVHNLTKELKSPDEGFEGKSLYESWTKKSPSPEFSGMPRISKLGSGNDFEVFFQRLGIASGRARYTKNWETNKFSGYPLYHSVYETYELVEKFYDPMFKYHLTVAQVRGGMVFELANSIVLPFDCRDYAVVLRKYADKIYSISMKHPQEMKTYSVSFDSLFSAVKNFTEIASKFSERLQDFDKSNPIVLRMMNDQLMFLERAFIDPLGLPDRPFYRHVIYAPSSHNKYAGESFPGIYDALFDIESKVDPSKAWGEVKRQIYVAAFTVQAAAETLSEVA
- Run Description: Inhibition assay (Amplex Red glutamic acid/glutamate oxidase, NAAG substrate)
- Setup Conditions: Target PSMA; calculated based on Cheng-Prusoff equation; average of N replicates
pKi: −log10 of the molar value.
Measurement Type: pKi

INSERT INTO results (compound, measurement_type, test_value) VALUES
  ('CC(=O)NCCOCCOCCOCCC(=O)NC[C@H]1CC[C@H](C(=O)N[C@@H](Cc2ccc3ccccc3c2)C(=O)NCCCC[C@H](NC(=O)N[C@@H](Cc2cnc[nH]2)C(=O)O)C(=O)O)CC1 (stereo in doubt) [Compound 29]', 'pKi', 5.39),
  ('CC(=O)NCCOCCOCCOCCC(=O)NC[C@H]1CC[C@H](C(=O)N[C@@H](Cc2ccc3ccccc3c2)C(=O)NCCCC[C@H](NC(=O)N[C@@H](Cc2ccco2)C(=O)O)C(=O)O)CC1 [Compound 49]', 'pKi', 6.93),
  ('CC(=O)NCCOCCOCCOCCC(=O)N[C@@H]1C[C@@H](C(=O)N[C@@H](Cc2ccc3ccccc3c2)C(=O)NCCCC[C@H](NC(=O)N[C@@H](CCC(=O)O)C(=O)O)C(=O)O)N(C(=O)CCCOc2cc(C#N)cc(C#N)c2)C1 (stereo in doubt) [Compound 82]', 'pKi', 10.89),
  ('C#CC[C@H](NC(=O)N[C@@H](CCCCNC(=O)[C@H](Cc1ccc2ccccc2c1)NC(=O)[C@H]1CC[C@H](CNC(=O)CCOCCOCCOCCNC(C)=O)CC1)C(=O)O)C(=O)O [Compound 50]', 'pKi', 6.90),
  ('CC(=O)NCCOCCOCCOCCC(=O)N[C@@H](Cc1cccc(C(=O)O)c1)C(=O)NCCC(=O)N[C@@H](Cc1ccc2ccccc2c1)C(=O)NCCCC[C@H](NC(=O)N[C@@H](CCC(=O)O)C(=O)O)C(=O)O [Compound 93]', 'pKi', 10.16),
  ('CC(=O)NCCOCCOCCOCCC(=O)NC[C@H]1CC[C@H](C(=O)N[C@@H](Cc2ccc3ccccc3c2)C(=O)NCCCC(=O)N[C@@H](CNC(=O)N[C@@H](CCC(=O)O)C(=O)O)C(=O)O)CC1 [Compound 33]', 'pKi', 5.38),
  ('CC(=O)NCCOCCOCCOCCC(=O)NC[C@H]1CC[C@H](C(=O)N[C@@H](Cc2cscn2)C(=O)NCCCC[C@H](NC(=O)N[C@@H](CCC(=O)O)C(=O)O)C(=O)O)CC1 [Compound 45]', 'pKi', 8.40),
  ('CC(=O)NCCOCCOCCOCCC(=O)N[C@@H](Cc1ccc(C(=O)O)cc1)C(=O)NCCC(=O)N[C@@H](Cc1ccc2ccccc2c1)C(=O)NCCCC[C@H](NC(=O)N[C@@H](CCC(=O)O)C(=O)O)C(=O)O [Compound 95]', 'pKi', 10.08),
  ('CC(=O)NCCOCCOCCOCCC(=O)NC[C@H]1CC[C@H](C(=O)N[C@@H](Cc2cn(C)cn2)C(=O)NCCCC[C@H](NC(=O)N[C@@H](CCC(=O)O)C(=O)O)C(=O)O)CC1 [Compound 11]', 'pKi', 7.64),
  ('CC(=O)NCCOCCOCCOCCC(=O)NC[C@H]1CC[C@H](C(=O)N[C@@H](Cc2ccc3ccccc3c2)C(=O)NCCCC[C@H](NC(=O)N[C@@H](CC(C)C)C(=O)O)C(=O)O)CC1 [Compound 26]', 'pKi', 4.96),
  ('C=CC[C@H](NC(=O)CCOCCOCCOCCNC(C)=O)C(=O)NC[C@H]1CC[C@H](C(=O)N[C@@H](Cc2ccc3ccccc3c2)C(=O)NCCCC[C@H](NC(=O)N[C@@H](CCC(=O)O)C(=O)O)C(=O)O)CC1 [Compound 41]', 'pKi', 9.20),
  ('CC(=O)NCCOCCOCCOCCC(=O)NC[C@H]1CC[C@H](C(=O)N[C@@H](Cc2ccccc2)C(=O)NCCCC[C@H](NC(=O)N[C@@H](CCC(=O)O)C(=O)O)C(=O)O)CC1 [Compound 17]', 'pKi', 9.18),
  ('CC(=O)NCCOCCOCCOCCC(=O)NC[C@H]1CC[C@H](C(=O)N[C@@H](Cc2ccc(O)cc2)C(=O)NCCCC[C@H](NC(=O)N[C@@H](CCC(=O)O)C(=O)O)C(=O)O)CC1 [Compound 3]', 'pKi', 8.52),
  ('CC(=O)NCCOCCOCCOCCC(=O)N[C@@H](Cc1ccc(C(=O)O)cc1)C(=O)NCCCC(=O)N[C@@H](Cc1ccc2ccccc2c1)C(=O)NCCCC[C@H](NC(=O)N[C@@H](CCC(=O)O)C(=O)O)C(=O)O [Compound 97]', 'pKi', 10.11),
  ('CC(=O)NCCOCCOCCOCCC(=O)NC[C@H]1CC[C@H](C(=O)N[C@H](Cc2c[nH]cn2)C(=O)NCCCC[C@H](NC(=O)N[C@@H](CCC(=O)O)C(=O)O)C(=O)O)CC1 [Compound 42]', 'pKi', 7.80),
  ('CC(=O)NCCOCCOCCOCCC(=O)NC[C@H]1CC[C@H](C(=O)N[C@@H](Cc2ccc3ccccc3c2)C(=O)NCCCC[C@H](NC(=O)N[C@@H](Cc2ccc(O)cc2)C(=O)O)C(=O)O)CC1 [Compound 25]', 'pKi', 6.50),
  ('CC(=O)NCCOCCOCCOCCC(=O)NC[C@H]1CC[C@H](C(=O)N[C@@H](Cc2ccc(F)cc2)C(=O)NCCCC[C@H](NC(=O)N[C@@H](CCC(=O)O)C(=O)O)C(=O)O)CC1 [Compound 13]', 'pKi', 8.17),
  ('CC(=O)NCCOCCOCCOCCC(=O)NC[C@H]1CC[C@H](C(=O)N[C@@H](CCCCN)C(=O)NCCCC[C@H](NC(=O)N[C@@H](CCC(=O)O)C(=O)O)C(=O)O)CC1 [Compound 6]', 'pKi', 6.38);
